molecules and their reported Ratio
test system: Escherichia coli; assay: In vitro activity against Escherichia coli DNA gyrase subunit B supercoiling, expressed as IC50 novobiocin / IC50 compound; format: functional
I only need the number, thanks.

Some molecules with known Ratio results, for comparison:
molecule=CCOC(=O)c1c(O)oc2c(C)c(O[C@@H]3OC(C)(C)[C@H](OC)[C@@H](OC(=O)c4ccc(C)[nH]4)[C@H]3O)ccc2c1=O subject_of_test="Escherichia coli" readout_number=3.1
molecule="CCONC(=O)OC1[C@@H](O)[C@H](Oc2ccc3c(O)c(C(=O)OCC)c(=O)oc3c2C)OC(C)(C)[C@@H]1OC (single isomer, unassigned)" subject_of_test="Escherichia coli" readout_number=2

API: the following record is the query input.
Give reported Ratio value for "C#CCNC(=O)O[C@H]1[C@@H](O)[C@H](Oc2ccc3c(=O)c(C(=O)OCC)c(O)oc3c2C)OC(C)(C)[C@@H]1OC"
0.38
